# System: HepG2 hepatocellular carcinoma
# TEST SUMMARY: Relative colony forming efficiency (Example 17, Table 13)
# Type: cell-based, human
# MEASUREMENT PARAMETERS: averages of 2-8 determinations
Oligonucleotides are written 5' to 3', each unit as a sugar letter and its base; * is a phosphorothioate linkage, no mark a phosphodiester; rarer units and linkages stand in square brackets, end groups in braces. Plain capitals give the bases only. d = 2'-deoxy (DNA)
Collected Reduced relative colony forming efficiency, HepG2 (% inhibition of colony forming ability) values appear next to each entry.
RECORDED ENDPOINT: Reduced relative colony forming efficiency, HepG2 (% inhibition of colony forming ability)

ordered_residues="ATCCAGCGCAAGGCCCAGTC (antisense dA*dT*dC*dC*dA*dG*dC*dG*dC*dA*dA*dG*dG*dC*dC*dC*dA*dG*dT*dC) [AS-II-816-20]" endpoint_result=93.08%
ordered_residues="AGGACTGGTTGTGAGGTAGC (antisense dA*dG*dG*dA*dC*dT*dG*dG*dT*dT*dG*dT*dG*dA*dG*dG*dT*dA*dG*dC) [AS-II-1499-20]" endpoint_result=77.5%
ordered_residues="GAACATCAGGCAAGCAAAAT (antisense dG*dA*dA*dC*dA*dT*dC*dA*dG*dG*dC*dA*dA*dG*dC*dA*dA*dA*dA*dT) [AS-II-1006-20]" endpoint_result=89.31%
ordered_residues="TCTGCCTTCTTCTTGACACA (antisense dT*dC*dT*dG*dC*dC*dT*dT*dC*dT*dT*dC*dT*dT*dG*dA*dC*dA*dC*dA) [AS-II-798-20]" endpoint_result=89.46%
ordered_residues="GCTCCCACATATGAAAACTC (antisense dG*dC*dT*dC*dC*dC*dA*dC*dA*dT*dA*dT*dG*dA*dA*dA*dA*dC*dT*dC) [AS-II-2229A-20]" endpoint_result=73.26%
ordered_residues="GGTTTTCTCTCAGCAGCGGC (antisense dG*dG*dT*dT*dT*dT*dC*dT*dC*dT*dC*dA*dG*dC*dA*dG*dC*dG*dG*dC) [AS-II-404-20]" endpoint_result=84.79%

###

# Tested on: HepG2 hepatocellular carcinoma
# TEST SUMMARY: Relative colony forming efficiency (Example 17, Table 13)
# Format: cell-based, human
# MEASUREMENT PARAMETERS: averages of 2-8 determinations
Oligonucleotides are written 5' to 3', each unit as a sugar letter and its base; * is a phosphorothioate linkage, no mark a phosphodiester; rarer units and linkages stand in square brackets, end groups in braces. Plain capitals give the bases only. d = 2'-deoxy (DNA)
RECORDED ENDPOINT: Reduced relative colony forming efficiency, HepG2 (% inhibition of colony forming ability) (%)

ordered_residues="GGAAGATGACAAAGCGGCGG (antisense dG*dG*dA*dA*dG*dA*dT*dG*dA*dC*dA*dA*dA*dG*dC*dG*dG*dC*dG*dG) [AS-II-425-20]" subject_of_test="HepG2 hepatocellular carcinoma" units_label=% endpoint_result=97.89
ordered_residues="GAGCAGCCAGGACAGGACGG (antisense dG*dA*dG*dC*dA*dG*dC*dC*dA*dG*dG*dA*dC*dA*dG*dG*dA*dC*dG*dG) [AS-II-151-20]" subject_of_test="HepG2 hepatocellular carcinoma" units_label=% endpoint_result=89.53
ordered_residues="TGCCTCCGACCCTTCCCATT (antisense dT*dG*dC*dC*dT*dC*dC*dG*dA*dC*dC*dC*dT*dT*dC*dC*dC*dA*dT*dT) [AS-II-14-20]" subject_of_test="HepG2 hepatocellular carcinoma" units_label=% endpoint_result=88.4
